Parameter growth: see the listing below.
test system: PC-3 prostate; experiment: NCI-60 one-dose screen, 48 h (100 = growth as untreated, 0 = no growth, -100 = all killed); conditions: 10 µM unless noted
This is part of a sample that, as a whole, favours compounds with a hit. Of some 83,000 tested, about 20% had one in any assay.
Numbers only here, please. The scale is %.

In: // lookup growth for CCCCc1ccc(C(N)=O)nc1
Out: 98.7

In: // lookup growth for CC(=O)OCC(=O)[C@@]1(O)CC[C@H]2[C@@H]3CCC4=CC(=O)CC[C@]4(C)[C@@]3(F)[C@@H](O)C[C@@]21C
Out: 93.7

In: // lookup growth for CCOC(=O)Nc1cc(-c2ccc(C)c(NS(C)(=O)=O)c2)nn2c(C)nnc12
Out: 23.8
